Source listed as paper PMC9352680.

# TARGET OR SYSTEM: T1, PUF4 RNA-binding domain (Saccharomyces cerevisiae, UniProt P25339 537-888)
# T1 sequence: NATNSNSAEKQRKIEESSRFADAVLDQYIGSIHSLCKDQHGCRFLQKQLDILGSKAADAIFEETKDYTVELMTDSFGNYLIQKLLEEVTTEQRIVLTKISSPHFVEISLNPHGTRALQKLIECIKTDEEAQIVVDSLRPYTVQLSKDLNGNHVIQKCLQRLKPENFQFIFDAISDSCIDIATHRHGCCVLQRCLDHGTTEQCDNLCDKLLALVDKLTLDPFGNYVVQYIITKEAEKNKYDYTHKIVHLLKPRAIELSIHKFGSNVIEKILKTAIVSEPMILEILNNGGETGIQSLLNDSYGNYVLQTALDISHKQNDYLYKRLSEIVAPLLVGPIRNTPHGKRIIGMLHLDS
# METHOD: Mg; RNA-MaP; 20 mM Na-HEPES pH 7.4, 30 mM KOAc, 0.75 mM MgCl2, 0.1% Tween-20, 5% glycerol, 0.1 mg/mL BSA, 2 mM DTT; 25 C; 0.0125-409.6 nM protein
# CONDITION NOTES: tags: N-His6-TEV cleaved; C-SNAP kept, Cy3B-labelled; label: tethered on chip by stalled RNA polymerase
// Kd lookup, one value per entry
// units = nM; emit number, no label

BINDER	UNIT OF MEASUREMENT	Kd
UCUCUUUGUAUCCCUUAUUAUCUCUU (ssRNA) [Ie_S1_P4E.1_K4.1_C4.1_H4.1_A4.1_[+5CCCTT]_F4.1_T4.1]	nM	41

Now look at this one.
Entry Ib_S2_P4E.1_K4.1_C4.1_H4.1_[G2T]_A4.1_[A6T]_F4.1_T4.1 (ssRNA) RNA: UUUGAUUAAUAUGAUAUCGUUCUUUCUUUUAUUUUAUUCUUUCUCGAUAUCAUAUUAAUCUUU : reported Kd = ?
1390
